Measured values drawn from paper PMC12718081 for this set.

study_target: Sm.TRPMPZQ (wild-type) (Schistosoma mansoni)
Sequence (A0A5K4F0X5 entry or part of it): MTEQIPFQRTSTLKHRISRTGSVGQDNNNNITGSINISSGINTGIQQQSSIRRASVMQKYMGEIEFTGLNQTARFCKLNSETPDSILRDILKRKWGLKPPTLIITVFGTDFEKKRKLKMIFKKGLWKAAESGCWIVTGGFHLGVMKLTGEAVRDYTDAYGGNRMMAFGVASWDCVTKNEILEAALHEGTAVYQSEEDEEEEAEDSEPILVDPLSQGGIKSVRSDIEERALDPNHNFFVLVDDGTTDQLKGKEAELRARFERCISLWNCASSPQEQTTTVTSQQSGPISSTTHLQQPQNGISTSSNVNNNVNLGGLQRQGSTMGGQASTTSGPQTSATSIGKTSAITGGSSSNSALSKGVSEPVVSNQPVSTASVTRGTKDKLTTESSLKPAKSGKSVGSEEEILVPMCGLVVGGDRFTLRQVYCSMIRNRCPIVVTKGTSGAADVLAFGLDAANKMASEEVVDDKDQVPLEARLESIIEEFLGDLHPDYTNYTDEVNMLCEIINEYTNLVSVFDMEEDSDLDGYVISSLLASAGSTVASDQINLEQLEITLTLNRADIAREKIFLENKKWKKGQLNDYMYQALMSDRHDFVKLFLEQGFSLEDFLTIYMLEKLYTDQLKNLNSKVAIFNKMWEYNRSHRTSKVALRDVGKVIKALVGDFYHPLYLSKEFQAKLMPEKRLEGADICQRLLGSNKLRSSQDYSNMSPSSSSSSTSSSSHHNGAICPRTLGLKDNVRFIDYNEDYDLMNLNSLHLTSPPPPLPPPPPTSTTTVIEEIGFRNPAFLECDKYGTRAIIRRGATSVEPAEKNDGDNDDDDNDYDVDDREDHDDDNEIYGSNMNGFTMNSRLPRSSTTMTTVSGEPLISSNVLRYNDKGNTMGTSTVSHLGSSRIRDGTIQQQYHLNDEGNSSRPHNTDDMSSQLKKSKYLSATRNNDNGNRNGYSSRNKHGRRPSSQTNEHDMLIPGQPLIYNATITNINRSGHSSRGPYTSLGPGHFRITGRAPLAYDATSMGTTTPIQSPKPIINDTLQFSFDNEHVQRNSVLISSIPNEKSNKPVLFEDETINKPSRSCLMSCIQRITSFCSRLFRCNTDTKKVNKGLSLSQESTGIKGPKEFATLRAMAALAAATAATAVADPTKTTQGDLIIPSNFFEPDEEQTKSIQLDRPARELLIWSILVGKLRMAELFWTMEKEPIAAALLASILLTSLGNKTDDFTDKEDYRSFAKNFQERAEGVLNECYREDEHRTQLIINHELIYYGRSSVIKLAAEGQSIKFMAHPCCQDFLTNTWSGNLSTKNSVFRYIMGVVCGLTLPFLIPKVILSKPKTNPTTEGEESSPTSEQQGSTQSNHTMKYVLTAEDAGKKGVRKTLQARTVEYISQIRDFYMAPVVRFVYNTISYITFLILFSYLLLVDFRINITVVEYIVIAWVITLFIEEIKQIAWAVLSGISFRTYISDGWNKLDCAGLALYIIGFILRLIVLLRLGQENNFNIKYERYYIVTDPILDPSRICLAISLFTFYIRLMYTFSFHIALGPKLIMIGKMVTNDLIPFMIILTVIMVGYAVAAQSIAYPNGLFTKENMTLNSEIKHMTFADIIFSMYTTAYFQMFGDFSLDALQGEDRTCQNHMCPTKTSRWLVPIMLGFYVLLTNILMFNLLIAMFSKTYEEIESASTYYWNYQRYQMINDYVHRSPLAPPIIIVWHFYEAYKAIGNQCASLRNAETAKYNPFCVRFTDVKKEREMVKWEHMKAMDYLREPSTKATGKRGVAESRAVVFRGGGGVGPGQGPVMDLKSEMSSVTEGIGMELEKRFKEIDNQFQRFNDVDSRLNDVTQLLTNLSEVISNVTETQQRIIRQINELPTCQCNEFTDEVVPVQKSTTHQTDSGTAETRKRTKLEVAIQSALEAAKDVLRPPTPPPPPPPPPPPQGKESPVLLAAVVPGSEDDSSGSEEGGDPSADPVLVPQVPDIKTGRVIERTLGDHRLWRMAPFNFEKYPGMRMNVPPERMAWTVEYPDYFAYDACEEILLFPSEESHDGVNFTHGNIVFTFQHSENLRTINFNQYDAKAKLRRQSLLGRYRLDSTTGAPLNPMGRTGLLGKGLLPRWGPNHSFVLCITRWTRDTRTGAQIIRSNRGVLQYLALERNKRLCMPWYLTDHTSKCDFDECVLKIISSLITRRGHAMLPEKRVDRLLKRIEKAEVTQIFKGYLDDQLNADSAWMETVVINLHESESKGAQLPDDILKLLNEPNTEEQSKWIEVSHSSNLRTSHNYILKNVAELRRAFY
assay_notes: Ca2+ reporter (FLIPR) activation assay, wild-type Sm.TRPMPZQ in HEK293 cells
Format: cell-based
condition: read-out: Bmax, wild-type Sm.TRPMPZQ activation
// values below are reported Emax
endpoint: Emax (%)

compound: [N-]=[N+]=Nc1ccc2c(c1)C1CN(C(=O)C3CCCCC3)CC(=O)N1CC2 (stereo not shown) [Compound 4]
endpoint: Emax
number: 80.5
--
compound: CCCc1cn(-c2ccc3c(c2)C2CN(C(=O)C4CCCCC4)CC(=O)N2CC3)nn1 (stereo not shown) [Compound 5e]
endpoint: Emax
number: 90.2
--
compound: O=C(C1CCCCC1)N1CC(=O)N2CCc3ccc([N+](=O)[O-])cc3C2C1 (stereo not shown) [Compound 2, 9-NO2–PZQ]
endpoint: Emax
number: 66.6
--
compound: Nc1ccc2c(c1)C1CN(C(=O)C3CCCCC3)CC(=O)N1CC2 (stereo not shown) [Compound 3, 9-NH2–PZQ]
endpoint: Emax
number: 90
